# STUDY TARGET: ROCK1 (Homo sapiens (Human))
# Sequence (Q13464 whole entry, species assumed): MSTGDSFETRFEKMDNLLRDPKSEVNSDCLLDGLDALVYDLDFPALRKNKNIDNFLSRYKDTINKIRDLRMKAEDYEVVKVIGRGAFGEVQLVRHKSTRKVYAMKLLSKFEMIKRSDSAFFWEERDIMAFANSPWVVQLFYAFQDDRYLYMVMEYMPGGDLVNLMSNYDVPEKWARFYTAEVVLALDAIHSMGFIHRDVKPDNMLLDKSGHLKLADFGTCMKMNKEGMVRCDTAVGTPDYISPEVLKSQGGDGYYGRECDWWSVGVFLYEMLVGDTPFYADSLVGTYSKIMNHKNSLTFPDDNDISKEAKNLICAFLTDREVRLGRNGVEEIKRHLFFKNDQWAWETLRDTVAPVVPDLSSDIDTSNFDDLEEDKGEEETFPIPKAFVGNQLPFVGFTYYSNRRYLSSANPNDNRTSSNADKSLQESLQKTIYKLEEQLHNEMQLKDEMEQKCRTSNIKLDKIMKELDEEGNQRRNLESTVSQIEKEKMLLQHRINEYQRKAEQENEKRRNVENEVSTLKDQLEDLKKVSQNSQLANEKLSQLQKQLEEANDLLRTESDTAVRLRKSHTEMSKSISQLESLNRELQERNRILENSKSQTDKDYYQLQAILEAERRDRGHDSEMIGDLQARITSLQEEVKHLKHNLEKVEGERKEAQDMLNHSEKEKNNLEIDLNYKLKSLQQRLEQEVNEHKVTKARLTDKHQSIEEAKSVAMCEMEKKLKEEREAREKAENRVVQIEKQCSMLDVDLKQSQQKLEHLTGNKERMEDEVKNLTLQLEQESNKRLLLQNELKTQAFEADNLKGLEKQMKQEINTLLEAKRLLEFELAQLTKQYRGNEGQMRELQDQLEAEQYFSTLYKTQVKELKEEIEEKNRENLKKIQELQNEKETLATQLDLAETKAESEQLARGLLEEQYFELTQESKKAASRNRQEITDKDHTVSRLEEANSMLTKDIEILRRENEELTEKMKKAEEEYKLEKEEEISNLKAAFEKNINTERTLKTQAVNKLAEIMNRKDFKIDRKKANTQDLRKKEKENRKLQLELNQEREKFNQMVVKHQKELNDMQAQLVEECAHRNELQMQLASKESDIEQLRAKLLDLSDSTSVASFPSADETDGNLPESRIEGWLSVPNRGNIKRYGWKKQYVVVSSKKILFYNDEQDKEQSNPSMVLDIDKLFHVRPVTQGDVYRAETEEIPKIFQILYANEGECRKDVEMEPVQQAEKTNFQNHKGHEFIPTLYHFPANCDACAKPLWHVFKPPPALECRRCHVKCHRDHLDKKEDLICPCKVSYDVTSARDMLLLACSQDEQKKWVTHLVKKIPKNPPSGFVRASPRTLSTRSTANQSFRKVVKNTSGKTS
# TEST SUMMARY: FRET-based Z'-Lyte kinase assay, ROCK1;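 further: kinase phosphorylates a coumarin/fluorescein-labelled FRET peptide, then a protease cleaves unphosphorylated peptide, progress read as donor to acceptor emission ratio after 400 nm excitation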
# Type: biochemical
# REPORTED CONDITIONS: read-out: IC50 ± SD (μM) ROCK1
Counter-ions that a name gives are not always drawn.
Catalogue of IC50 readings, one per entry.
READOUT LABEL: IC50

# MOLECULE, READOUT LABEL, RESULT
rows = [
    ("CCOc1cccc(CNC(=O)Nc2nc(-c3ccncc3)cs2)c1 [Compound 1bw]", "IC50", "2.14 µM"),
    ("O=C(Nc1nc(-c2ccncc2)cs1)Nc1ccccc1Cl [Compound 6e]", "IC50", "2.49 µM"),
    ("COC[C@@H](NC(=O)Nc1nc(-c2ccncc2)cs1)c1ccccc1 [Compound 1bj]", "IC50", "0.07 µM"),
    ("Cc1ccc(CNC(=O)Nc2nc(-c3ccncc3)cs2)cc1 [Compound 1bd]", "IC50", "5.16 µM"),
    ("O=C(Nc1nc(-c2ccncc2)cs1)N1CCN(c2ccncc2)CC1 [Compound 12a]", "IC50", "16.9 µM"),
    ("CC(=O)Nc1cccc(CNC(=O)Nc2nc(-c3ccncc3)cs2)c1 [Compound 1ci, hydrochloride]", "IC50", "1.25 µM"),
    ("C[C@H](c1ccccc1)N(C)C(=O)Nc1nc(-c2ccncc2)cs1 [Compound 1cn]", "IC50", "0.12 µM"),
    ("CC(C)(NC(=O)Nc1nc(-c2ccncc2)cs1)c1ccccc1 [Compound 1cl]", "IC50", "0.19 µM"),
    ("C[C@@H](NC(=O)Nc1nc(-c2ccncc2)cs1)c1cccc(Cl)c1 [Compound 1cb]", "IC50", "0.55 µM"),
]
